# Test Context: 327.15 K; 101.33 kPa; Liquid; Vibrating tube method
Parameter Measured: mass density (kg/m3)
Numbers only, in kg/m3.

| Chem Smiles | Endpoint Result |
| --- | --- |
| CCCC[n+]1ccn(C2CCCC2)c1.O=S(=O)([N-]S(=O)(=O)C(F)(F)F)C(F)(F)F | 1348.5 |
| CCCCC[n+]1ccn(CCCC)c1.O=S(=O)([N-]S(=O)(=O)C(F)(F)F)C(F)(F)F | 1291.7 |
| CCCCn1cc[n+](C(CC)CC)c1.O=S(=O)([N-]S(=O)(=O)C(F)(F)F)C(F)(F)F | 1293.9 |

Now let's try a different one.
// field: mass density; key: `CCCCn1cc[n+](CCC(C)C)c1.O=S(=O)([N-]S(=O)(=O)C(F)(F)F)C(F)(F)F` ; value = 1292.6

###

# Assay: molar heat capacity at constant pressure
# Test Context: 322.15 K; 101.33 kPa; Liquid; DSC
Parameter Measured: molar heat capacity at constant pressure (J/K/mol)
Give bare numbers, in J/K/mol.

| Chem Smiles | Units Symbol | molar heat capacity at constant pressure |
| --- | --- | --- |
| CCCCn1cc[n+](C(CC)CC)c1.O=S(=O)([N-]S(=O)(=O)C(F)(F)F)C(F)(F)F | J/K/mol | 715.35 |

Items follow; give molar heat capacity at constant pressure for each.
1. CCCC[n+]1ccn(C2CCCC2)c1.O=S(=O)([N-]S(=O)(=O)C(F)(F)F)C(F)(F)F
2. CCCCC[n+]1ccn(CCCC)c1.O=S(=O)([N-]S(=O)(=O)C(F)(F)F)C(F)(F)F
3. CCCCn1cc[n+](CCC(C)C)c1.O=S(=O)([N-]S(=O)(=O)C(F)(F)F)C(F)(F)F

*A*
669.75
704.74
703.7

###

# Assay: molar heat capacity at constant pressure
# Test Context: 344.15 K; 101.33 kPa; Liquid; DSC
Parameter Measured: molar heat capacity at constant pressure (J/K/mol)
Answers are plain numbers, in J/K/mol.

Items follow; give molar heat capacity at constant pressure for each.
1. CCCCn1cc[n+](C(CC)CC)c1.O=S(=O)([N-]S(=O)(=O)C(F)(F)F)C(F)(F)F
2. CCCCn1cc[n+](CCC(C)C)c1.O=S(=O)([N-]S(=O)(=O)C(F)(F)F)C(F)(F)F
3. CCCC[n+]1ccn(C2CCCC2)c1.O=S(=O)([N-]S(=O)(=O)C(F)(F)F)C(F)(F)F
4. CCCCC[n+]1ccn(CCCC)c1.O=S(=O)([N-]S(=O)(=O)C(F)(F)F)C(F)(F)F

*A*
[731.94, 720.81, 686.94, 721.24]

###

# Test Context: 293.15 K; 101.33 kPa; Liquid; Sing-around technique in a fixed-path interferometer
± gives the expanded uncertainty stated by the source.
Parameter Measured: speed of sound
I'd appreciate it if you included the unit after the number.

// below: answered compounds
| Chem Smiles | speed of sound |
| --- | --- |
| CCCCn1cc[n+](CCC(C)C)c1.O=S(=O)([N-]S(=O)(=O)C(F)(F)F)C(F)(F)F | 1229.3 ± 5 m/s |
| CCCC[n+]1ccn(C2CCCC2)c1.O=S(=O)([N-]S(=O)(=O)C(F)(F)F)C(F)(F)F | 1283.2 ± 5 m/s |
| CCCCC[n+]1ccn(CCCC)c1.O=S(=O)([N-]S(=O)(=O)C(F)(F)F)C(F)(F)F | 1225.3 ± 5 m/s |

Now let's try a different one.
// field: speed of sound; key: `CCCCn1cc[n+](C(CC)CC)c1.O=S(=O)([N-]S(=O)(=O)C(F)(F)F)C(F)(F)F` ; value = 1224.1 ± 5 m/s

###

# Assay: molar heat capacity at constant pressure
# Test Context: 335.15 K; 101.33 kPa; Liquid; DSC
± gives the expanded uncertainty stated by the source.
Parameter Measured: molar heat capacity at constant pressure
I'd appreciate it if you included the unit after the number.

// below: answered molecules
| Chem Smiles | molar heat capacity at constant pressure |
| --- | --- |
| CCCCC[n+]1ccn(CCCC)c1.O=S(=O)([N-]S(=O)(=O)C(F)(F)F)C(F)(F)F | 714.87 ± 28 J/K/mol |
| CCCC[n+]1ccn(C2CCCC2)c1.O=S(=O)([N-]S(=O)(=O)C(F)(F)F)C(F)(F)F | 680.21 ± 26 J/K/mol |
| CCCCn1cc[n+](C(CC)CC)c1.O=S(=O)([N-]S(=O)(=O)C(F)(F)F)C(F)(F)F | 725.43 ± 28 J/K/mol |

// field: molar heat capacity at constant pressure; key: `CCCCn1cc[n+](CCC(C)C)c1.O=S(=O)([N-]S(=O)(=O)C(F)(F)F)C(F)(F)F` ; value = 714.25 ± 28 J/K/mol

###

# Test Context: 315.15 K; 101.33 kPa; Liquid; Sing-around technique in a fixed-path interferometer
Parameter Measured: speed of sound (m/s)
Numbers only, in m/s.

// below: answered compounds
| Chem Smiles | speed of sound [m/s] |
| --- | --- |
| CCCCn1cc[n+](C(CC)CC)c1.O=S(=O)([N-]S(=O)(=O)C(F)(F)F)C(F)(F)F | 1173.1 |
| CCCCn1cc[n+](CCC(C)C)c1.O=S(=O)([N-]S(=O)(=O)C(F)(F)F)C(F)(F)F | 1178.4 |
| CCCCC[n+]1ccn(CCCC)c1.O=S(=O)([N-]S(=O)(=O)C(F)(F)F)C(F)(F)F | 1175.1 |

Now let's try a different one.
// field: speed of sound; key: `CCCC[n+]1ccn(C2CCCC2)c1.O=S(=O)([N-]S(=O)(=O)C(F)(F)F)C(F)(F)F` ; value = 1230.6

###

# Assay: molar heat capacity at constant pressure
# Test Context: 342.15 K; 101.33 kPa; Liquid; DSC
Provide the reported molar heat capacity at constant pressure of each item.
Give bare numbers, in J/K/mol.

| Chem Smiles | Parameter Measured | Endpoint Result |
| --- | --- | --- |
| CCCCn1cc[n+](CCC(C)C)c1.O=S(=O)([N-]S(=O)(=O)C(F)(F)F)C(F)(F)F | molar heat capacity at constant pressure | 719.53 |
| CCCCn1cc[n+](C(CC)CC)c1.O=S(=O)([N-]S(=O)(=O)C(F)(F)F)C(F)(F)F | molar heat capacity at constant pressure | 730.13 |
| CCCC[n+]1ccn(C2CCCC2)c1.O=S(=O)([N-]S(=O)(=O)C(F)(F)F)C(F)(F)F | molar heat capacity at constant pressure | 685.47 |

Now let's try a different one.
// field: molar heat capacity at constant pressure; key: `CCCCC[n+]1ccn(CCCC)c1.O=S(=O)([N-]S(=O)(=O)C(F)(F)F)C(F)(F)F` ; value = 719.96

###

Provide the reported molar heat capacity at constant pressure of each item.
# Assay: molar heat capacity at constant pressure
# Test Context: 308.15 K; 101.33 kPa; Liquid; DSC
One number for each entry, in J/K/mol.

// below: answered compounds
| Chem Smiles | Endpoint Result |
| --- | --- |
| CCCCC[n+]1ccn(CCCC)c1.O=S(=O)([N-]S(=O)(=O)C(F)(F)F)C(F)(F)F | 694.28 |
| CCCCn1cc[n+](C(CC)CC)c1.O=S(=O)([N-]S(=O)(=O)C(F)(F)F)C(F)(F)F | 704.22 |

Items follow; give molar heat capacity at constant pressure for each.
1. CCCC[n+]1ccn(C2CCCC2)c1.O=S(=O)([N-]S(=O)(=O)C(F)(F)F)C(F)(F)F
2. CCCCn1cc[n+](CCC(C)C)c1.O=S(=O)([N-]S(=O)(=O)C(F)(F)F)C(F)(F)F

*A*
1: 659.14; 2: 692.95

###

# Test Context: 307.15 K; 101.33 kPa; Liquid; Sing-around technique in a fixed-path interferometer
Parameter Measured: speed of sound (m/s)
Answers are plain numbers, in m/s.

// below: answered compounds
| Chem Smiles | speed of sound [m/s] |
| --- | --- |
| CCCCn1cc[n+](C(CC)CC)c1.O=S(=O)([N-]S(=O)(=O)C(F)(F)F)C(F)(F)F | 1191.2 |
| CCCCn1cc[n+](CCC(C)C)c1.O=S(=O)([N-]S(=O)(=O)C(F)(F)F)C(F)(F)F | 1196.6 |
| CCCC[n+]1ccn(C2CCCC2)c1.O=S(=O)([N-]S(=O)(=O)C(F)(F)F)C(F)(F)F | 1249.4 |

Now let's try a different one.
// field: speed of sound; key: `CCCCC[n+]1ccn(CCCC)c1.O=S(=O)([N-]S(=O)(=O)C(F)(F)F)C(F)(F)F` ; value = 1193

###

# Test Context: 303.15 K; 101.33 kPa; Liquid; Vibrating tube method
Provide the reported mass density of each item.
Numbers only, in kg/m3.

// below: answered compounds
| Chem Smiles | Endpoint Result |
| --- | --- |
| CCCCCC[n+]1ccn(C)c1.O=S(=O)([N-]S(=O)(=O)C(F)(F)F)C(F)(F)F | 1367.8 |
| CCCC[n+]1ccn(C2CCCC2)c1.O=S(=O)([N-]S(=O)(=O)C(F)(F)F)C(F)(F)F | 1370.2 |
| CCCCn1cc[n+](CCC(C)C)c1.O=S(=O)([N-]S(=O)(=O)C(F)(F)F)C(F)(F)F | 1313.7 |
| CCCCn1cc[n+](C(CC)CC)c1.O=S(=O)([N-]S(=O)(=O)C(F)(F)F)C(F)(F)F | 1315 |

// field: mass density; key: `CCCCC[n+]1ccn(CCCC)c1.O=S(=O)([N-]S(=O)(=O)C(F)(F)F)C(F)(F)F` ; value = 1312.9
